- Tested on: PC26
- assay-overview: qHTS profiling for inhibitors of Plasmodium falciparum proliferation (AID 504749); note: nearly all actives have a fitted effect of over 60% in size
- run-parameters: P. falciparum in erythrocytes, SYBR Green DNA, 72 h; series mostly up to 28.7 µM
- Description: NIH National Institute of Allergy and Infectious Diseases [NIAID] NIH Chemical Genomics Center [NCGC] […] Because mature erythrocytes lack DNA, only Plasmodium-derived DNA is detected. NCGC Assay Protocol Summary: The SYBR Green viability assay was adapted from a method described previously (Plouffe et al., 2008). […] The following morning, fluorescence intensity at 485(14) nm excitation and 535(25) nm emission wavelengths was measured on an EnVision (Perkin Elmer) plate reader. […]
Inconclusive results are not listed. Activity calls are given as the source filed them. Calls come from the whole dose curve; as a rule, active = well fitted inhibition curve with a large enough effect; inconclusive = small, poorly fitted or top-dose-only effect; inactive = flat fitted curve, though single readings scatter.
Can you answer with just one of these options? active, inactive

Hello, I am checking results. What call was entered for Oc1c(Br)cc(Br)c2cccnc12 ?
inactive

Can you check O=C(O)/C=C/C(O)c1ccc(Cl)cc1 (stereo not drawn) next?
inactive

Can you check CN1[C@@H]2CC[C@H]1CC(OC(=O)C(CO)c1ccccc1)C2 (stereo partly drawn) next?
inactive

Can you check O=C(Nc1ccc(C(=O)O)c(O)c1)c1ccccc1 next?
inactive

Can you check CCCCCCCCCCCCCCCC(=O)OC(C)C next?
inactive

* * *

- assay-overview: qHTS for differential inhibitors of proliferation of Plasmodium falciparum line GB4 (AID 1816);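 note: parasite growth measured after 72 h incubation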
- run-parameters: Plasmodium falciparum GB4 proliferation inhibition; series mostly up to 28.7 µM
Results filed as inconclusive are left out. The source made the active and inactive calls. Calls follow the shape of the dose curve; as a rule, active = well fitted curve in the direction sought with a large enough effect; inconclusive = small, poorly fitted or top-dose-only effect, or another doubt; inactive = no such curve, though single readings can be large or run the other way.
Can you answer with just one of these options? Yes (active), No (inactive)

Hello, I am checking results. What call was entered for CCCCCCCCCCCCCCCCCC(=O)NCC(COP(=O)([O-])OCC[N+](C)(C)C)OCC (centres undefined) ?
No

Can you check COC(=O)c1c(C)[nH]c(C)c1C(=O)c1ccccc1Cc1ccccc1 next?
Yes

Can you check O=C(Nc1cccc(C(=O)Nc2ccc(S(=O)(=O)O)c3cc(S(=O)(=O)O)cc(S(=O)(=O)O)c23)c1)Nc1cccc(C(=O)Nc2ccc(S(=O)(=O)O)c3cc(S(=O)(=O)O)cc(S(=O)(=O)O)c23)c1 next?
No

Can you check Fc1cccc(/C=N/N=C/c2cccc(F)c2)c1 next?
No

* * *

- Tested on: Zika virus NS2B-NS3 protease (unlinked)
- assay-overview: Optimization of GU AMC qHTS for Zika virus inhibitors: Unlinked NS2B-NS3 protease assay (AID 1347151); note: nearly all actives have a fitted effect of over 80% in size
- run-parameters: recombinant ZIKV NS2B-NS3 protease, fluorogenic AMC substrate; series mostly up to 52.5 µM
Inconclusive results are not listed. Activity calls are given as the source filed them. Calls come from the whole dose curve; as a rule, active = well fitted inhibition curve with a large enough effect; inconclusive = small, poorly fitted or top-dose-only effect; inactive = no such curve, though single readings can be large or run the other way.
Can you answer with just one of these options? active, inactive

| molecule | assay-target | category-label |
| --- | --- | --- |
| CCC1C(=O)OCC1Cc1cncn1C (centres undefined) | Zika virus NS2B-NS3 protease (unlinked) | inactive |
| CCCCCCCCCCCCCCCC(=O)OC(CC(=O)O)C[N+](C)(C)C (centres undefined) | Zika virus NS2B-NS3 protease (unlinked) | inactive |

Hello, I am checking results. What call was entered for NS(=O)(=O)c1ccc(-n2nc(C(F)(F)F)cc2-c2ccc(Cl)cc2)cc1 ?
inactive

Can you check COc1cc(SC)ccc1C(=O)N1CCC(Cc2ccccc2)CC1 next?
inactive

Can you check CN(C)c1nc(N)c(C(=O)N=C(N)N)nc1Cl next?
inactive

Can you check O=[N+]([O-])c1ccc2c(c1)S(=O)(=O)C=C2 next?
inactive

Can you check CCN(CC)c1ncnc2c1ncn2[C@@H]1O[C@H](COP(=O)(O)OP(=O)(O)C(Br)(Br)P(=O)(O)O)[C@@H](O)[C@H]1O next?
inactive

Can you check O=c1[nH]c2cc([N+](=O)[O-])c([N+](=O)[O-])cc2[nH]c1=O next?
inactive

Can you check OC[C@H]1O[C@@H](n2cnc3c(NC4CCCC4)ncnc32)[C@H](O)[C@@H]1O next?
inactive

Can you check O=C(/C=C/c1ccc(O)cc1)c1ccc(O)cc1O next?
inactive

Can you check CC[C@H]1OC(=O)[C@H](C)[C@@H](O[C@H]2C[C@@](C)(OC)[C@@H](O)[C@H](C)O2)[C@H](C)[C@@H](O[C@@H]2O[C@H](C)C[C@H](NC)[C@H]2O)[C@](C)(O)C[C@@H](C)CN(C)[C@H](C)[C@@H](O)[C@]1(C)O next?
inactive

Can you check OCC1O[C@H](O)C(Cl)C(O)C1O (some centres undefined) next?
inactive

Can you check O=C(Nc1ccncc1)c1cc([N+](=O)[O-])ccc1Cl next?
inactive

Can you check CCCC(CCC)C(=O)OC1CC2CCC(C1)[N+]2(C)C (centres undefined) next?
inactive

Can you check Fc1ccc2[nH]c(CN3CCN(c4ccccn4)CC3)cc2c1 next?
inactive

Can you check CCCCC#Cc1nc(NC)c2ncn([C@@H]3O[C@H](CO)[C@@H](O)[C@H]3O)c2n1 next?
inactive

Can you check CN[C@H](CC(C)C)C(=O)N[C@H]1C(=O)N[C@@H](CC(N)=O)C(=O)N[C@H]2C(=O)N[C@H]3C(=O)N[C@H](C(=O)N[C@H](C(=O)O)c4cc(O)cc(O)c4-c4cc3ccc4O)[C@H](O)c3ccc(c(Cl)c3)Oc3cc2cc(c3O[C@@H]2O[C@H](CO)[C@@H](O)[C@H](O)[C@H]2O[C@H]2C[C@](C)(N)[C@H](O)[C@H](C)O2)Oc2ccc(cc2Cl)[C@H]1O next?
inactive

Can you check C[N+]1(C)C2CC(OC(=O)[C@H](CO)c3ccccc3)CC1C1OC12 (some centres undefined) next?
inactive

Can you check Cc1ccccc1CNc1ncnc2c1ncn2C1OC(CO)C(O)C1O (centres undefined) next?
inactive

Can you check N=c1ccn2c(n1)O[C@H]1[C@H](O)[C@@H](CO)O[C@H]12 next?
inactive

Data provenance: PubChem BioAssay (NCATS)
